Field: IC50. Provide a value for each of the compounds that follow.
Target: hROMK (human Kir1.1) (Homo sapiens (Human))
Sequence (P48048 whole entry): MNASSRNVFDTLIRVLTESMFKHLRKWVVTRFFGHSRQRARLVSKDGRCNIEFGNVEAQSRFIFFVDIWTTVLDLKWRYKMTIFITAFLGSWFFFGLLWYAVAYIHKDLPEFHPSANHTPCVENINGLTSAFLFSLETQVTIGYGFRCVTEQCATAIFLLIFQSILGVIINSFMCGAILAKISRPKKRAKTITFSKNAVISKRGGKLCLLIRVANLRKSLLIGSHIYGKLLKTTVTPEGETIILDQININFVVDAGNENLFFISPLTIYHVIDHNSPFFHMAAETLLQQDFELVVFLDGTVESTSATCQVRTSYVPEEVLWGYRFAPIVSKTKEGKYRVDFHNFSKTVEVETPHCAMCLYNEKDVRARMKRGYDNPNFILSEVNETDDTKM
Assay: Thallium Flux Assay (FluxOR, CHO T-Rex hROMK stable cell line)
Details: CHO T-Rex hROMK cells, 10-point concentration response curve; read-out: Human ROMK TH Flux IC50
State just the number; it will be interpreted in nM.

The reported value for Cc1cc(-n2cc(CNC[C@H](F)c3ccc4c(c3C)COC4=O)cn2)ncc1C#N [Example 167] in terms of IC50 is 68

The reported value for CNC(=O)O[C@@H](CNCc1cnn(-c2cc(C)c(C#N)cn2)c1)c1ccc2c(c1C)COC2=O [Example 144] in terms of IC50 is 140

The reported value for COc1cc(-n2cc(CNC[C@H](O)c3ccc4c(c3C)COC4=O)nn2)ncc1C#N [Example 138] in terms of IC50 is 43

The reported value for Cc1cc(-n2cc(CNCC(C)(O)c3ccc4c(c3C)COC4=O)cn2)ncc1C#N (single isomer, unassigned) [Example 170-I] in terms of IC50 is 160

---

Molecular target: hROMK (human Kir1.1) (Homo sapiens (Human))
Assay: Thallium Flux Assay (FluxOR, CHO T-Rex hROMK stable cell line)
Details: CHO T-Rex hROMK cells, 10-point concentration response curve; read-out: Human ROMK TH Flux IC50
Classification scheme (IC50): lo = under 0.03 µM, med = from 0.03 µM up to 0.2 µM, hi = 0.2 µM and over

Prompt: Input Cc1cn(-c2ccc(CNC[C@H](O)c3ccc4c(c3C)COC4=O)nn2)cn1 ; output its category
Response: hi

Prompt: Input Cc1c([C@@H](O)CNCc2ccc(-c3ccc(=O)n(C)n3)nc2)ccc2c1COC2=O ; output its category
Response: med

Prompt: Input Cc1c(C(O)CN(C)Cc2cnc(-c3ccc(C#N)c(F)c3)nc2)ccc2c1COC2=O (stereo not drawn) ; output its category
Response: med

Prompt: Input Cc1c([C@@H](O)CN(C)Cc2ccc(-c3ccc4oc(=O)n(C)c4c3)cn2)ccc2c1COC2=O (single isomer, unassigned) ; output its category
Response: med

Prompt: Input Cc1nnn(-c2ccc(CNC[C@H](O)c3ccc4c(c3C)COC4=O)cn2)n1 ; output its category
Response: hi

Prompt: Input Cc1c([C@@H](O)CNCc2cnn(-c3cc(OC(C)C)c(C#N)cn3)c2)ccc2c1COC2=O ; output its category
Response: med

Prompt: Input Cc1cc(-n2cnc(CNC[C@H](O)c3ccc4c(c3C)COC4=O)c2)nc(C)c1C#N ; output its category
Response: med

Prompt: Input Cc1c([C@@H](O)CNCc2cnc(-n3cc(C#N)c(C4CC4)n3)nc2)ccc2c1COC2=O ; output its category
Response: lo

Prompt: Input Cc1cc(-n2nc(C)c(CNC[C@H](O)c3ccc4c(c3C)COC4=O)n2)ncc1C#N ; output its category
Response: hi

Prompt: Input Cc1c([C@@H](O)CNCc2ccc(-n3ccc(C#N)n3)nc2)ccc2c1COC2=O ; output its category
Response: lo

Prompt: Input Cc1c([C@@H](O)CNCc2cnn(-c3cc(N4CCOC4=O)ccn3)c2)ccc2c1COC2=O ; output its category
Response: hi

Prompt: Input Cc1cc(-n2ncc(C(C)NC[C@H](O)c3ccc4c(c3C)COC4=O)n2)ncc1C#N (single isomer, unassigned) ; output its category
Response: hi

Prompt: Input Cc1c([C@@H](O)CNCc2ccc(-n3ccnc3)nc2)ccc2c1COC2=O ; output its category
Response: med

Prompt: Input Cc1cc(-n2ccc3cc(CN(C)CC(O)c4ccc5c(c4C)COC5=O)ccc32)ncc1C#N (single isomer, unassigned) ; output its category
Response: hi

Prompt: Input COc1cc(-n2cc(CNC(C)C(O)c3ccc4c(c3C)COC4=O)nn2)ncc1C#N (single isomer, unassigned) ; output its category
Response: lo

Prompt: Input Cc1cc(-n2cc(CNC[C@H](O)c3ccc4c(c3C)COC4=O)n(C)c2=O)ncc1C#N ; output its category
Response: med

Prompt: Input COc1nc(-n2cc(CNC[C@H](O)c3ccc4c(c3C)COC4=O)cn2)cc(C)c1C#N ; output its category
Response: lo

Prompt: Input Cc1ncn(-c2ncc(CNC[C@H](O)c3ccc4c(c3C)COC4=O)cn2)c1C ; output its category
Response: med

Prompt: Input Cc1cc(-n2cc(CNC[C@H](O)c3ccc4c(c3C)COC4=O)nn2)nc(C)c1C#N ; output its category
Response: lo

Prompt: Input COc1cc(-n2cc(CNC[C@H](O)c3ccc4c(c3C)COC4=O)nc2C)ncc1C#N ; output its category
Response: med

Prompt: Input Cc1cn(-c2ccc(CNC[C@H](O)c3ccc4c(c3C)COC4=O)cn2)nc1C#N ; output its category
Response: lo

Prompt: Input Cc1cc(-n2cc(CN(CC3CCOC3)C[C@H](O)c3ccc4c(c3C)COC4=O)cn2)ncc1C#N (stereo partly drawn) ; output its category
Response: hi

Prompt: Input Cc1c([C@@H](O)CNCc2ccc(-n3cnc(C#N)c3)nc2)ccc2c1COC2=O ; output its category
Response: lo

Prompt: Input COc1nc(-n2cc(CNC[C@H](O)c3ccc4c(c3C)COC4=O)cn2)ccc1C#N ; output its category
Response: lo

Prompt: Input Cc1c(C(O)CN(C)Cc2ccc(-n3ccc4c(C#N)cccc43)cc2)ccc2c1COC2=O (single isomer, unassigned) [Example 28-II] ; output its category
Response: hi

Prompt: Input Cc1cc(-n2cc(CNC[C@H](O)c3ccc4c(c3C)COC4=O)cn2)cc(C)n1 ; output its category
Response: hi

Prompt: Input Cc1cc(-n2cc(CNC[C@H](O)c3ccc4c(c3C)COC4=O)c3ncccc32)ncc1C#N ; output its category
Response: med

Prompt: Input Cc1c(C(O)CN(C)Cc2cnc(-n3ncc4c(C#N)cccc43)nc2)ccc2c1COC2=O (single isomer, unassigned) ; output its category
Response: hi

Prompt: Input Cc1cc(-n2cc(CNC[C@H](NCCO)c3ccc4c(c3C)COC4=O)cn2)ncc1C#N ; output its category
Response: med

Prompt: Input COc1c(CNC[C@H](O)c2ccc3c(c2C)COC3=O)cnn1-c1cc(C)c(C#N)cn1 ; output its category
Response: lo

---

Molecular target: hROMK (human Kir1.1) (Homo sapiens (Human))
Test: Thallium Flux Assay (FluxOR, CHO T-Rex hROMK stable cell line)
Settings: CHO T-Rex hROMK cells, 10-point concentration response curve; read-out: Human ROMK TH Flux IC50
pIC50: −log10 of the molar value.
# if value of pIC50 reaches 7, tag YES; if it stays below, tag NO

Prompt: Please tell me: is the molecule Cc1cc(-n2cc(CNCC(O)c3ccc4c(c3C)C(C)OC4=O)cn2)ncc1C#N (single isomer, unassigned) [Example 172-II] at or over 7 in terms of pIC50?
Response: NO

Prompt: Please tell me: is the molecule CC(=O)N[C@@H](CNCc1cnn(-c2cc(C)c(C#N)cn2)c1)c1ccc2c(c1C)COC2=O [Example 39] at or over 7 in terms of pIC50?
Response: YES

Prompt: Please tell me: is the molecule Cc1cc(-n2[nH]cc(CNC[C@H](O)c3ccc4c(c3C)COC4=O)c2=O)ncc1C#N [Example 36] at or over 7 in terms of pIC50?
Response: NO

Prompt: Please tell me: is the molecule Cc1c([C@@H](O)CNCc2cnn(-c3ccc(-c4noc(=O)n4C)cn3)c2)ccc2c1COC2=O [Example 171] at or over 7 in terms of pIC50?
Response: NO

Prompt: Please tell me: is the molecule COc1cc(-n2cc(CNC[C@H](O)c3ccc4c(c3OC)COC4=O)cn2)ncc1C#N [Example 150] at or over 7 in terms of pIC50?
Response: YES

Prompt: Please tell me: is the molecule CNc1cc(-n2cc(CNC[C@H](O)c3ccc4c(c3C)COC4=O)cn2)ncc1C#N [Example 146] at or over 7 in terms of pIC50?
Response: YES

Prompt: Please tell me: is the molecule Cc1c(C(O)CNCc2ccc3c(ccn3-c3ccc4c(c3)COC4=O)c2)ccc2c1COC2=O (centres unmarked) [Example 8-I] at or over 7 in terms of pIC50?
Response: NO

Prompt: Please tell me: is the molecule CN(Cc1ccc(-c2ccc(C#N)c(F)c2)nc1)CC(O)c1ccc2oc(=O)n(C)c2c1 (single isomer, unassigned) [Example 24-I] at or over 7 in terms of pIC50?
Response: NO

Prompt: Please tell me: is the molecule Cc1cnc(-n2cc(CNC[C@H](O)c3ccc4c(c3C)COC4=O)cn2)cc1C#N [Example 49] at or over 7 in terms of pIC50?
Response: YES

Prompt: Please tell me: is the molecule COc1cc(-c2ccc(CNC[C@H](O)c3ccc4c(c3C)COC4=O)cn2)ncc1C#N [Example 130] at or over 7 in terms of pIC50?
Response: YES
